Measured pIC50 accompanies every entry in the list below.
target: CYP3A4 (Homo sapiens, UniProt P08684); experiment: Determination of IC50 against CYP3A4 by measurement of inhibition of midazolam metabolism (human liver microsomes, 1-hydroxymidazolam by LC-MS/MS); type: biochemical; parameters: 0.1 mg/mL human liver microsomes; conditions: 2 μM midazolam, 0.1 mg/mL human liver microsomes
Sequence (P08684 whole entry): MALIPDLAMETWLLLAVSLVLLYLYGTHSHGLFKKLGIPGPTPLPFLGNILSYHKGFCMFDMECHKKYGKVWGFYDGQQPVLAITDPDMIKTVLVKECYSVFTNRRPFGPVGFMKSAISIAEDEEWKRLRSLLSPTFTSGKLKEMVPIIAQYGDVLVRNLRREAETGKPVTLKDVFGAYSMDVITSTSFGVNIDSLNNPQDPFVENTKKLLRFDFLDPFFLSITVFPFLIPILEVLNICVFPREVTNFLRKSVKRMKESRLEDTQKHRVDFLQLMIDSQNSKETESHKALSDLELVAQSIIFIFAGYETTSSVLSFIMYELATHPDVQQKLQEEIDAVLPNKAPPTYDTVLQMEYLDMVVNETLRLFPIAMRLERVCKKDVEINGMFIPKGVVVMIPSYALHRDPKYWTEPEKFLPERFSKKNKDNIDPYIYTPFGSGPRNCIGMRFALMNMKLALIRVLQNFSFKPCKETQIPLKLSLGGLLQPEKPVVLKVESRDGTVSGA
pIC50: −log10 of the molar value.

Take a look at these entries with their results.
1) COc1cncc(NS(=O)(=O)c2ccccc2C(=O)NCc2c(F)cccc2Cl)c1 :: > 8.52
2) CN1CCN(C(=O)c2ccccc2S(=O)(=O)Nc2cccnc2)CC1 :: < 6.12

From here, focus on the item given below.
Challenge: Query the reported pIC50 for CYP3A4 (Homo sapiens, UniProt P08684); item: COc1cncc(NS(=O)(=O)c2ccccc2C(=O)NCCC2CCCN2C)c1 (stereo not drawn)
Response given: < 6.12

* * *

biological target: CYP3A4 (Homo sapiens, UniProt P08684); experiment: Determination of compound Kiapp against recombinant CYP3A4 enzyme (BFC fluorescent substrate); type: biochemical; conditions: Baculo. enzyme preparation, read-out: Kiapp (BFC, Baculo.)
Rule for this label: true (1) means Ki is less than 80 nM; false (0) means Ki is at least 80 nM.

1. CC(C)(O)c1ccc(CNC(=O)c2ccccc2S(=O)(=O)Nc2cccnc2)cc1 :: false (0)
2. CC(C)(C)OC(=O)N1CCC2(CC1)CN(C(=O)c1ccccc1S(=O)(=O)Nc1cccnc1)C2 :: false (0)
3. COc1cncc(NS(=O)(=O)c2ccccc2C(=O)NCc2ccc(F)cc2Cl)c1 :: true (1)
4. CCCCN(C)C(=O)c1ccccc1S(=O)(=O)Nc1cnccc1OCC :: true (1)
5. COc1cncc(NS(=O)(=O)c2ccc(OC)cc2C(=O)NCc2ccc(F)cc2)c1 :: true (1)

Challenge: Please let me know if COc1cncc(NS(=O)(=O)c2ccccc2C(=O)NC(CO)Cc2ccc(Cl)cc2)c1 (stereo not shown) shows Ki below 80 nM.
Response given: true (1)

Challenge: Record: COc1cncc(NS(=O)(=O)c2ccccc2C(=O)NC2CCCC2)c1
Response given: false (0)

Challenge: Record: COCCCNC(=O)c1ccccc1S(=O)(=O)Nc1cncc(OC)c1
Response given: false (0)

Challenge: Record: CCCCCNC(=O)c1ccccc1S(=O)(=O)Nc1cncc(OC)c1
Response given: true (1)

Challenge: Record: CCC(C)NC(=O)c1ccccc1S(=O)(=O)Nc1cncc(OC)c1 (stereo not shown)
Response given: false (0)

Challenge: Record: COc1cncc(NS(=O)(=O)c2ccccc2C(=O)N(CC(C)O)C(C)C)c1 (stereo not shown)
Response given: false (0)

Challenge: Record: COc1cncc(NS(=O)(=O)c2ccccc2C(=O)N(CCO)C(C)C)c1
Response given: false (0)

Challenge: Record: COc1cncc(NS(=O)(=O)c2ccccc2C(=O)N(C)CCC(C)C)c1
Response given: true (1)

Challenge: Record: COc1cncc(NS(=O)(=O)c2ccccc2C(=O)NCc2ccc(F)c(Cl)c2)c1
Response given: true (1)

Challenge: Record: COc1cncc(NS(=O)(=O)c2ccccc2C(=O)NCc2ccc(Cl)cc2C)c1
Response given: true (1)

* * *

target: CYP3A4 (Homo sapiens, UniProt P08684); experiment: Determination of IC50 against CYP3A4 by measurement of inhibition of midazolam metabolism (human liver microsomes, 1-hydroxymidazolam by LC-MS/MS); assay type: biochemical; parameters: 0.1 mg/mL human liver microsomes; settings: 2 μM midazolam, 0.1 mg/mL human liver microsomes
Metric: IC50

1) CC(C)(C)OC(=O)N1CCC2(CC1)CN(C(=O)c1ccccc1S(=O)(=O)Nc1cccnc1)C2 :: > 750 nM
2) CN(c1cccnc1)S(=O)(=O)c1ccccc1C(=O)N1CCCC1 :: > 750 nM
3) COc1cncc(NS(=O)(=O)c2ccccc2C(=O)NC2CCCC(C)C2)c1 (stereo not shown) :: < 3 nM

From here, focus on the item given below.
Challenge: If you can, please state the reported IC50 value of CN(C)CCNC(=O)c1ccccc1S(=O)(=O)Nc1cccnc1 .
Response given: > 750 nM

* * *

target: CYP3A4 (Homo sapiens); assay: Determination of compound Kiapp against recombinant CYP3A4 enzyme (BFC fluorescent substrate); assay type: biochemical; settings: Baculo. enzyme preparation, read-out: Kiapp (BFC, Baculo.)
pKi: −log10 of the molar value.
pKi vs 7: at or above is criterion met, below is criterion not met.

1) CCCCNC(=O)c1ccccc1S(=O)(=O)Nc1cnccc1C :: criterion not met
2) COC1CCN(C(=O)c2ccccc2S(=O)(=O)Nc2cccnc2)CC1 :: criterion not met
3) Cc1cncc(NS(=O)(=O)c2ccccc2C(=O)N(C)C(C)C)c1 :: criterion not met
4) CC1CC(C)CN(C(=O)c2ccccc2S(=O)(=O)Nc2cccnc2)C1 (stereo not drawn) :: criterion not met
5) CCOc1ccncc1NS(=O)(=O)c1ccccc1C(=O)NC(C)CC (stereo not drawn) :: criterion not met
6) COc1cncc(NS(=O)(=O)c2ccccc2C(=O)NCC2CCCCC2)c1 :: criterion met
7) COc1cncc(NS(=O)(=O)c2ccccc2C(=O)NC(C)(C)C)c1 :: criterion not met
8) Cc1cncc(NS(=O)(=O)c2ccccc2C(=O)N(C)Cc2cccc(F)c2)c1 :: criterion met
9) CN(c1cccnc1)S(=O)(=O)c1ccccc1C(=O)N1CCCC1 :: criterion not met
10) COc1cncc(NS(=O)(=O)c2ccccc2C(=O)NCc2c(F)cccc2Cl)c1 :: criterion met

Challenge: pKi >= 7 for O=C(c1ccccc1S(=O)(=O)Nc1cncc(Br)c1)N1CCCCC1 ?
Response given: criterion not met

Challenge: Record: CN(C)Cc1ccc(CNC(=O)c2ccccc2S(=O)(=O)Nc2cccnc2)cc1
Response given: criterion not met

Challenge: Record: COCCN(C)C(=O)c1ccccc1S(=O)(=O)Nc1cnccc1OC
Response given: criterion not met

Challenge: Record: CCC(C)CNC(=O)c1ccccc1S(=O)(=O)Nc1cnccc1OC (stereo not drawn)
Response given: criterion not met

Challenge: Record: CCCCNC(=O)c1ccccc1S(=O)(=O)Nc1cnccc1OC
Response given: criterion not met

* * *

biological target: CYP3A4 (Homo sapiens); experiment: Determination of IC50 against CYP3A4 by measurement of inhibition of midazolam metabolism (human liver microsomes, 1-hydroxymidazolam by LC-MS/MS); format: biochemical; set-up: 0.1 mg/mL human liver microsomes; details: 2 μM midazolam, 0.1 mg/mL human liver microsomes
Rule for this label: yes (1) means IC50 is less than 50 nM; no (0) means IC50 is at least 50 nM.

Answered examples (5):
1) COc1ccc(CNC(=O)c2ccccc2S(=O)(=O)N(C)c2cccnc2)cc1 :: yes (1)
2) COc1cncc(NS(=O)(=O)c2ccccc2C(=O)NC(C)(C)c2ccc(F)c(F)c2)c1 :: yes (1)
3) O=C(NCc1cccc(OC(F)F)c1)c1ccccc1S(=O)(=O)Nc1cccnc1 :: yes (1)
4) CCCCCN(C)C(=O)c1cc(Cl)ccc1S(=O)(=O)Nc1cncc(OC)c1 :: yes (1)
5) CN(Cc1ccc(F)c(F)c1)C(=O)c1ccccc1S(=O)(=O)Nc1cccnc1 :: yes (1)

Challenge: Please let me know if CC(C)CCNC(=O)c1ccccc1S(=O)(=O)N(C)c1cccnc1 shows IC50 below 50 nM.
Response given: yes (1)

Challenge: Record: COc1cncc(NS(=O)(=O)c2ccccc2C(=O)NCCc2ccncc2)c1
Response given: no (0)

Challenge: Record: Cc1ccncc1NS(=O)(=O)c1ccccc1C(=O)NCc1ccc(S(C)(=O)=O)cc1
Response given: no (0)

Challenge: Record: CCOc1cncc(NS(=O)(=O)c2ccccc2C(=O)N2CCCC2)c1
Response given: no (0)

Challenge: Record: O=C(NCc1cccc2[nH]ccc12)c1ccccc1S(=O)(=O)Nc1cccnc1
Response given: yes (1)

Challenge: Record: COc1ccncc1NS(=O)(=O)c1ccccc1C(=O)N1CCCCC1
Response given: no (0)

Challenge: Record: CCCCCN(C)C(=O)c1ccccc1S(=O)(=O)Nc1cccnc1
Response given: yes (1)

Challenge: Record: CCOCCNC(=O)c1ccccc1S(=O)(=O)Nc1cncc(C)c1
Response given: no (0)

Challenge: Record: CCCCN(C)C(=O)c1ccccc1S(=O)(=O)Nc1cccnc1
Response given: yes (1)

* * *

molecular target: CYP3A4 (Homo sapiens); assay: Determination of IC50 against CYP3A4 by measurement of inhibition of testosterone metabolism (human liver microsomes, 6-β-OH-testosterone by LC-MS/MS); assay type: biochemical; parameters: 0.1 mg/mL human liver microsomes; details: read-out: IC50 (Testo.)
Measured IC50 accompanies every entry in the list below.
// return numeric value only (unit: nM, not printed)

Take a look at these entries with their results.
1) Cc1ccccc1CCNC(=O)c1ccccc1S(=O)(=O)Nc1cccnc1 :: 13
2) Cc1cncc(NS(=O)(=O)c2ccccc2C(=O)NCc2cccc(F)c2)c1 :: 15
3) O=C(NCc1cccc(F)c1F)c1ccccc1S(=O)(=O)Nc1cccnc1 :: 10

Challenge: If you can, please state the reported IC50 value of O=C(NC1CCCCC1)c1ccccc1S(=O)(=O)Nc1cccnc1 .
Response given: 67

Challenge: Record: COc1ccncc1NS(=O)(=O)c1ccccc1C(=O)NC(C)C1CC1 (stereo not shown)
Response given: 134

Challenge: Record: CN(c1cccnc1)S(=O)(=O)c1ccccc1C(=O)NCC1CCCC1
Response given: 13

Challenge: Record: COc1cncc(NS(=O)(=O)c2ccccc2C(=O)NCc2ccc(F)c(C(F)(F)F)c2)c1
Response given: 12

Challenge: Record: COc1cncc(NS(=O)(=O)c2ccccc2C(=O)NCc2c(F)ccc(C)c2F)c1
Response given: 11
